# System: Influenza A virus
# experimental details: Antiviral activity against amantidine-resistant Influenza A virus A/WSN/33(H1N1) infected in MDCK cells assessed as inhibition of virus-induced cytopathic effects after 3 days by CCK-8 assay
# Assay type: functional, organism-based
# setup conditions: A/WSN/1933(H1N1), 72 h
For each record, check the reported IC50: if it is below 3 µM write TRUE, else write FALSE.

* COc1ccccc1-n1nnc(C)c1C(=O)N1CCN(c2ccccc2)CC1 | FALSE
* COc1ccccc1-c1ccccc1C(=O)N1CCN(c2ccc([N+](=O)[O-])cc2Cl)CC1 | TRUE
* COc1ccccc1-n1nnc(C)c1C(=O)N1CCN(c2ccccc2Cl)CC1 | FALSE
* COc1ccccc1-n1nnc(C)c1C(=O)N1CCN(c2ccc([N+](=O)[O-])cc2Cl)CC1 | TRUE
* Cc1nnn(-c2ccc(Cl)cc2)c1C(=O)N1CCN(c2ccc([N+](=O)[O-])cc2Cl)CC1 | FALSE
* Cc1nnn(-c2ccccc2OC(C)C)c1C(=O)N1CCN(c2ccc([N+](=O)[O-])cc2Cl)CC1 | FALSE

In plain terms, does `CCc1nnn(-c2ccccc2OC)c1C(=O)N1CCN(c2ccc([N+](=O)[O-])cc2Cl)CC1` come in under 3 µM for IC50?
FALSE

Given `COc1cccc(OC)c1-n1nnc(C)c1C(=O)N1CCN(c2ccc([N+](=O)[O-])cc2Cl)CC1` , is recorded IC50 strictly lower than 3 µM?
TRUE

Would you kindly verify if IC50 of `Cc1nnn(-c2ccccc2O)c1C(=O)N1CCN(c2ccc([N+](=O)[O-])cc2Cl)CC1` is strictly less than 3 µM?
TRUE

All values here come from ChEMBL document CHEMBL2029340.
